Data provenance: patent US20210395344A1

For each entry below, report its IC50 value.
target: human ACE2 (human, UniProt Q9BYF1 18-740)
Sequence (Q9BYF1 18-740 limits assumed): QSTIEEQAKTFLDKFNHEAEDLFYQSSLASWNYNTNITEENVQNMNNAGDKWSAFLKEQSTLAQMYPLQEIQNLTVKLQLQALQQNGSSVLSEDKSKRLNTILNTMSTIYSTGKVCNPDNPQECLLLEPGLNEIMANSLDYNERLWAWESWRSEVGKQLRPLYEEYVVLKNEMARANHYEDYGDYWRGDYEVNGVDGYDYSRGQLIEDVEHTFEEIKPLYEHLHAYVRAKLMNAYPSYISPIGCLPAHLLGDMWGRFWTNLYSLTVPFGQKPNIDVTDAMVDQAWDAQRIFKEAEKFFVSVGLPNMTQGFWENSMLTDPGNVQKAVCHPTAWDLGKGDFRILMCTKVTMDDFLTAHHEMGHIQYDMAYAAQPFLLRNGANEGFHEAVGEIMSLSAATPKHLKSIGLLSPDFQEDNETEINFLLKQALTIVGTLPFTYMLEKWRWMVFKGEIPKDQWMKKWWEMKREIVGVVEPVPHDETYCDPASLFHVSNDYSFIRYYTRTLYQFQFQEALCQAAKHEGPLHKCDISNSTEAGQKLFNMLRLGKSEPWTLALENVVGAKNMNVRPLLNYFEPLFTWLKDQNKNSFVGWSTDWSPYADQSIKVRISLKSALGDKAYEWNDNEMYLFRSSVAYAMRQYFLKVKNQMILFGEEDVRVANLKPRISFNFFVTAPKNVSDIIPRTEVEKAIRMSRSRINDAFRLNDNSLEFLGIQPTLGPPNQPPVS
// return numeric value only (unit: nM, not printed)

Ask: Entry under review: 4-139 (antibody, V domains shown) VH: EVQLVESGGGLVQPGGSLRLSCAASGGGTFGSYAMGWFRQAPGKEREFVAAISIASGASGGTTNYADSVKGRFTISADNSKNTAYLQMNSLKPEDTAVYYCATTMNPNPRWGQGTLVTVSS . Reported IC50?
Reply: 20.2

Ask: May I ask what IC50 has been recorded for 4-147 (antibody, V domains shown) VH: EVQLVESGGGLVQPGGSLRLSCAASGGTFSVYAMGWFRQAPGKEREGVAAISMSGDDAAYADSVKGRFTISADNSKNTAYLQMNSLKPEDTAVYYCAKISKDDGGKPRGAFFDSWGQGTLVTVSS ?
Reply: 68.3

Ask: IC50 for 4-124 (antibody, V domains shown) VH: EVQLVESGGGLVQPGGSLRLSCAASGNIFTRNVMGWFRQAPGKEREFVAAITSSGSTNYADSVKGRFTISADNSKNTAYLQMNSLKPEDTAVYYCARPSSDLQGGVDYWGQGTLVTVSS ?
Reply: 54.4

Ask: // lookup IC50 for 4-119 (antibody, V domains shown) VH: EVQLVESGGGLVQPGGSLRLSCAASGFAFSSYAMGWFRQAPGKEREWVATINGDDYTYYADSVKGRFTISADNSKNTAYLQMNSLKPEDTAVYYCVATPGGYGLWGQGTLVTVSS
Reply: 4.37
